Hello, the source for this data is patent US20240383886A1, in case you need it.

Listed next: entries and their corresponding DC50.
test system: PTPN2 (Homo sapiens, UniProt P17706)
Construct: expressed in transfected cells; host or cells: 293T (293T.109 HiBiT-PTPN2 line; parental 293T WT from ATCC)
assay summary: HiBiT-Degradation 293T.109 PTPN2 (Nano-Glo HiBiT Lytic Assay)
Format: cell-based
assay context: 293T.109 (HiBiT-PTPN2) cells, 24.0 hours

Sample answers from the record:
molecule	DC50
Cn1c(=O)n(C2CCC(=O)NC2=O)c2ccc(C3CCN(CC(=O)N4CC(Oc5ccc6cc(O)c(N7CC(=O)NS7(=O)=O)c(F)c6c5)C4)CC3)cc21 (stereo not shown)	10 to 50 nM
Cn1c(=O)n(C2CCC(=O)NC2=O)c2ccc(Nc3ccc(CNC(=O)c4ccc5c(F)c(N6CC(=O)NS6(=O)=O)c(O)cc5c4)cc3)cc21 (stereo not shown)	200 to 1000 nM
Cn1c(=O)n(C2CCC(=O)NC2=O)c2ccc(C3CCN(CC(=O)N4CC[C@H](COc5ccc6cc(O)c(N7CC(=O)NS7(=O)=O)c(F)c6c5)C4)CC3)cc21 (stereo partly shown)	10 to 50 nM
Cn1c(=O)n(C2CCC(=O)NC2=O)c2ccc(Nc3ccc(C(=O)NCCOc4ccc5cc(O)c(N6CC(=O)NS6(=O)=O)c(F)c5c4)cc3)cc21 (stereo not shown)	200 to 1000 nM
Cn1c(=O)n(C2CCC(=O)NC2=O)c2ccc(C3CCN(CCN4CC[C@@H](COc5ccc6cc(O)c(N7CC(=O)NS7(=O)=O)c(F)c6c5)C4)CC3)cc21 (stereo partly shown)	10 to 50 nM
Cn1c(=O)n(C2CCC(=O)NC2=O)c2ccc(NC3CN(CC(=O)Nc4ccc5c(F)c(N6CC(=O)NS6(=O)=O)c(O)cc5c4)C3)cc21 (stereo not shown)	10 to 50 nM

QUERY: What value of measured DC50 is listed for Cn1c(=O)n(C2CCC(=O)NC2=O)c2ccc(N3CCC(CC(=O)N4CCC[C@@H](COc5ccc6cc(O)c(N7CC(=O)NS7(=O)=O)c(F)c6c5)C4)CC3)cc21 (stereo partly shown) ?
RESULT: 50 to 200 nM

QUERY: Same lookup for Cn1c(=O)n(C2CCC(=O)NC2=O)c2ccc(C3CN(CC(=O)Nc4ccc5c(F)c(N6CC(=O)NS6(=O)=O)c(O)cc5c4)C3)cc21 (stereo not shown) , please.
RESULT: 10 to 50 nM

QUERY: Same lookup for Cn1c(=O)n(C2CCC(=O)NC2=O)c2ccc(C3CCN(CC(=O)Nc4ccc5c(F)c(N6CC(=O)NS6(=O)=O)c(O)cc5c4)CC3F)cc21 (stereo not shown) , please.
RESULT: 10 to 50 nM

QUERY: Same lookup for O=C(CCCCCn1cc(CNc2cccc3c2C(=O)N(C2CCC(=O)NC2=O)C3=O)nn1)NCCOc1ccc2cc(O)c(N3CC(=O)NS3(=O)=O)cc2c1 (stereo not shown) , please.
RESULT: ≥ 1000 nM

QUERY: Same lookup for O=C1CCC(N2C(=O)c3cccc(NCc4cn(CCC(=O)Nc5ccc6c(F)c(N7CC(=O)NS7(=O)=O)c(O)cc6c5)nn4)c3C2=O)C(=O)N1 (stereo not shown) , please.
RESULT: 200 to 1000 nM

* * *

System: PTPN2
assay summary: HiBiT-Degradation B16F10.4 PTPN2
Format: cell-based
assay context: B16F10.4 cells, 24.0 hours
Listed next: entries and their corresponding DC50.

Sample answers from the record:
compound	result
Cn1c(=O)n(C2CCC(=O)NC2=O)c2ccc(C3CCN(CC(C)(C)CCOc4ccc5cc(O)c(N6CC(=O)NS6(=O)=O)c(F)c5c4)CC3)cc21 (stereo not shown)	50 to 200 nM
Cn1c(=O)n(C2CCC(=O)NC2=O)c2ccc(C3CCN([C@@H](CO)C(=O)Nc4ccc5c(F)c(N6CC(=O)NS6(=O)=O)c(O)cc5c4)CC3)cc21 (stereo partly shown)	50 to 200 nM
C[C@@H]1CC(c2ccc3c(c2)n(C)c(=O)n3C2CCC(=O)NC2=O)CCN1CC(=O)Nc1ccc2c(F)c(N3CC(=O)NS3(=O)=O)c(O)cc2c1 (stereo partly shown)	50 to 200 nM
CN(CCOc1ccc2cc(O)c(N3CC(=O)NS3(=O)=O)c(F)c2c1)C(=O)CN1CCC(c2ccc3c(c2)n(C)c(=O)n3C2CCC(=O)NC2=O)CC1 (stereo not shown)	200 to 1000 nM
Cn1c(=O)n(C2CCC(=O)NC2=O)c2cccc(C3CCN(CC(=O)Nc4ccc5c(F)c(N6CC(=O)NS6(=O)=O)c(O)cc5c4)CC3)c21 (stereo not shown)	≥ 1000 nM

QUERY: What value of measured DC50 is listed for Cn1c(=O)n(C2CCC(=O)NC2=O)c2ccc(C3CCN(CCN4CC[C@H](COc5ccc6cc(O)c(N7CC(=O)NS7(=O)=O)c(F)c6c5)C4)CC3)cc21 (stereo partly shown) ?
RESULT: 50 to 200 nM

QUERY: Same lookup for Cn1c(=O)n(C2CCC(=O)NC2=O)c2ccc([C@H]3CC[C@@H](CC(=O)Nc4ccc5c(F)c(N6CC(=O)NS6(=O)=O)c(O)cc5c4)CC3)cc21 (single isomer, unassigned) [Example 81a] , please.
RESULT: 10 to 50 nM

QUERY: Same lookup for Cn1c(=O)n(C2CCC(=O)NC2=O)c2ccc(C3CCN(CCC(=O)N4CC[C@@H](c5ccc6cc(O)c(N7CC(=O)NS7(=O)=O)c(F)c6c5)C4)CC3)cc21 (stereo partly shown) , please.
RESULT: 50 to 200 nM

QUERY: Same lookup for Cn1c(=O)n(C2CCC(=O)NC2=O)c2ccc(Nc3ccc(C(=O)Nc4ccc5c(F)c(N6CC(=O)NS6(=O)=O)c(O)cc5c4)cc3)cc21 (stereo not shown) , please.
RESULT: 50 to 200 nM

QUERY: Same lookup for Cn1c(=O)n(C2CCC(=O)NC2=O)c2ccc(C3CCN(CC(=O)N4CC[C@@H](COc5ccc6cc(O)c(N7CC(=O)NS7(=O)=O)c(F)c6c5)C4)CC3)cc21 (stereo partly shown) , please.
RESULT: 50 to 200 nM

* * *

Listed next: entries and their corresponding DC50.
test system: PTPN2 (Homo sapiens)
Construct: expressed in transfected cells; host or cells: 293T (293T.109 HiBiT-PTPN2 line; parental 293T WT from ATCC)
assay summary: HiBiT-Degradation 293T.109 PTPN2 (Nano-Glo HiBiT Lytic Assay)
Format: cell-based
assay context: 293T.109 (HiBiT-PTPN2) cells, 24.0 hours

Sample answers from the record:
compound	result
O=C1CCC(N2C(=O)c3cccc(NCc4cn(C5CCN(CC(=O)Nc6ccc7c(F)c(N8CC(=O)NS8(=O)=O)c(O)cc7c6)CC5)nn4)c3C2=O)C(=O)N1 (stereo not drawn)	200 to 1000 nM
Cn1c(=O)n(C2CCC(=O)NC2=O)c2ccc(C3CCN(CC(=O)N4CC(Nc5ccc6cc(O)c(N7CC(=O)NS7(=O)=O)c(F)c6c5)C4)CC3(F)F)cc21 (stereo not drawn)	50 to 200 nM

QUERY: What value of measured DC50 is listed for O=C1CCC(N2Cc3cc(OCc4cn(CCC(=O)Nc5ccc6c(F)c(N7CC(=O)NS7(=O)=O)c(O)cc6c5)nn4)ccc3C2=O)C(=O)N1 (stereo not drawn) ?
RESULT: 50 to 200 nM

* * *

test system: PTPN2 (Homo sapiens)
Construct: expressed in transfected cells; host or cells: 293T (293T.109 HiBiT-PTPN2 line; parental 293T WT from ATCC)
Sequence (P17706 1-415): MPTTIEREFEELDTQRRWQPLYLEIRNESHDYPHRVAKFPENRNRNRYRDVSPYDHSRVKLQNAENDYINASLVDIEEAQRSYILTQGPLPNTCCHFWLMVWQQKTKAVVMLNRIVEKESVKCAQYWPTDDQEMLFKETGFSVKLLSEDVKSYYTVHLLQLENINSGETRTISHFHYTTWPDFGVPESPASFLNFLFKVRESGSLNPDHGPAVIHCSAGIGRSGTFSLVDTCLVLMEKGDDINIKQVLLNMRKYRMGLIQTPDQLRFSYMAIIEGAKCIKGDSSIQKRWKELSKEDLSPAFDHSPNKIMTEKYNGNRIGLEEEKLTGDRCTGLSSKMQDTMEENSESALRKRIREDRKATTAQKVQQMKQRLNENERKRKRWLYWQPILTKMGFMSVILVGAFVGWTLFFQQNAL
assay summary: HiBiT-Degradation 293T.109 PTPN2 (Nano-Glo HiBiT Lytic Assay)
Type: cell-based
assay context: 293T.109 (HiBiT-PTPN2) cells, 24.0 hours
Listed next: entries and their corresponding DC50.

Sample answers from the record:
compound	result
Cn1c(=O)n(C2CCC(=O)NC2=O)c2ccc(C3CCN(Cc4nnc(-c5ccc6c(F)c(N7CC(=O)NS7(=O)=O)c(O)cc6c5)o4)CC3)cc21 (stereo not drawn) [Example 146]	10 to 50 nM
Cn1c(=O)n(C2CCC(=O)NC2=O)c2ccc(C3CCN(C(=O)CCC(=O)NCCOc4ccc5cc(O)c(N6CC(=O)NS6(=O)=O)c(F)c5c4)CC3)cc21 (stereo not drawn) [Example 30]	≥ 1000 nM

QUERY: What value of measured DC50 is listed for O=C1CCC(N2C(=O)c3cccc(NCc4cn(CCOCCOCCC(=O)Nc5ccc6c(F)c(N7CC(=O)NS7(=O)=O)c(O)cc6c5)nn4)c3C2=O)C(=O)N1 (stereo not drawn) [Example 63] ?
RESULT: 200 to 1000 nM
